tested on: MS2 coat protein; assay: apparent KD of MS2 coat protein; designed switch direction (-1 OFF switch, 1 ON switch): -1; higher = weaker reporter binding; settings: input ligand: FMN 200 uM
Attribute measured: apparent KD of MS2 coat protein (nM)
Numbers only, in nM.

Sample records with apparent KD of MS2 coat protein:
Tell me the measured apparent KD of MS2 coat protein of UGAAUACGUGUUAGGAUAUGGUUUGGUAUUUCGGGCUAGAAGGGACAUGAGGAUCACCCAUGUAAUUGAUAGGU [-16.2, -13.6 kcal, 27% A] (Eterna round: R97, puzzle: Brourd's mod of Exclusion 4) , please.
52.4

Entry to check: UCCUCACAUGAGGAUCACCCAUGUCAGGAUAUACGAACGGUAAGUGACAAUCGAUUACGUAGAAGGGACUGCGG [Eternabot (L1) Solution 78] (Eterna round: R97, puzzle: Exclusion 1)
110

// input: 3 sequences below; output: apparent KD of MS2 coat protein for each
1. UUACGAUUGCUAGGAUAUCCACGAAUAGCUCCGGGAGAAGGAGCUCUCGUACAUGAGGAUCACCCAUGUCAGGGUGUCCAAUUU [Onraedin] (Eterna round: R96, puzzle: Exclusion NG 1)
2. GUAUAAUGAGUCAGGAUAUUGAUGACGCUAGGACACAAGAAGGGACAUGAGGAUCACCCAUGUUAUUAUGCGGU [Eternabot (L2) Solution 29] (Eterna round: R97, puzzle: Brourd's mod of Exclusion 4)
3. AUCAGCUCGUGAGGAUAUGAACAUGAGGAUCACCCAUGUAAGAUCAAGCUGCUUCGGCAGCAAGUUCAGAAGGUACGAGCUGAU [ENG2/10-C3] (Eterna round: R96, puzzle: Exclusion NG 2)

1: 38.1; 2: 88.2; 3: 197

====

system: MS2 coat protein; test: apparent KD of MS2 coat protein; designed switch direction (-1 OFF switch, 1 ON switch): -1; higher = weaker reporter binding; conditions: Eterna round: R95; input ligand: none
Attribute measured: apparent KD of MS2 coat protein (nM)
Give bare numbers, in nM.

Example cases with answers are listed next.
For the sequence shown here, AGUAACCGUCACGAAAGUGAUGGUUACACAGGCAAAUGUACAUGAGGAUCACCCAUGUCCUCAAUUGCUCGUCUUAU [Sensor 3 - 53] (puzzle: Sensor v3, turn-off variant 2) , give the reported apparent KD of MS2 coat protein.
120

What about AGGGAUAAAGGAUAUACAUGAGGAUCACCCAUGUUGAGGAAGGUUAGAUGAGGAGUAAGUAGAAGGUUAGACGA [JR_Exclu3_Sub088] (puzzle: Exclusion 3) ?
61.3

Input AGAAAGCAAGGAUAUACGAGGAGAAGGAGGAAAGUUAAAGGACAUGAGGAUCACCCAUGUAGAAGGUGCGAGAA [JR_Exclu2_Sub042] (puzzle: Exclusion 2)
55.8

Please answer likewise for CAUACUCAAGUCAGGAUAUAGACUCGGAUACGGAUCUAGAAGGGACAUGAGGAUCACCCAUGUAGAGAGUAAAG [EX-4 Malc #26] (puzzle: Brourd's mod of Exclusion 4)
25

Check UUUAAUUUUUUUUUUUUACAAGCUUUUUGCUCGUCUUAUACAUGAGGAUCACCCAUGUGGGUGGAAGAUAAAUUAUC [JMF 12] (puzzle: Sensor v3, turn-off variant 2) too.
134

Report apparent KD of MS2 coat protein for every entry below.
1. AUUUUAACAUAGGAUAUCGAAUUUAUUAUUUAACGAGAAGGAUGAACAUGAGGAUCACCCAUGUGGUAUCAUGA [Mat - Exclusion 6 - JL Mod - D21] (puzzle: Exclusion 6)
2. UGUACGAUGCGUGCUGACAUGCGUCGUGCAGCAGGUUUUACAUGAGGAUCACCCAUGUCCUCACUUGCUCGUCUUGU (puzzle: Sensor v3, turn-off variant 2)

1: 45.9; 2: 279

====

test system: MS2 coat protein; experiment: apparent KD of MS2 coat protein; designed switch direction (-1 OFF switch, 1 ON switch): 1; higher = weaker reporter binding; settings: input ligand: FMN 200 uM
Attribute measured: apparent KD of MS2 coat protein (nM)
Numbers only, in nM.

Quick one: apparent KD of MS2 coat protein of UGAAUAUCUACAGGAUAUGAGUUGUAUAGUGGAUCAGAAGGGUGGGUGUUUUGCACGGUGUGUUACAUGAGGAUCACCCAUGUU [SameState NG1 #25] (Eterna round: R96, puzzle: Same State NG 1) ?
302

Okay, and GGAGCCGGCACCGAGGAUAUUCAUAUUAAAACAUGAGGAUCACCCAUGUACCGCAGAAGCGGUUGGGAGAAGGCGGAUCGGCUCG [Xeonanis - 23] (Eterna round: R96, puzzle: Same State 2) ?
31.3

What do we get for AAAAUUGAAUUACAUCUGCUCGUCAUACAACAUGAGGAUCACCCAUGUAACAUCAAACAACCAACCAAACACAAAUC [Ceeslage] (Eterna round: R96, puzzle: Sensor for hsa-mir-208a) ?
20.1

Next sequence up: GCUAGAAUUAAAGCCAACAUGAGGAUCACCCAUGUAUGUUGGCAGGAUAUCGUUUGCUUUGCAAACGAGAAGGGCUAAACUAGC [JL SSNG3 1.02] (Eterna round: R96, puzzle: Same State NG 3)
114

GUGGUGGGUUGAGGAUAUUGGUUGUUGUUGUUUUACAUGAGGAUCACCCAUGUGGGUUGUGGUUUUGAGAAGGUUGGUUGCUGG [salish99_SSNG2_r04_048] (Eterna round: R96, puzzle: Same State NG 2) ?
262

Follow-up entry: GUGGUCAGACAUGAGGAUCACCCAUGUGGAAUAAAUAAGGGACAGGAUAUGGAAUAUAGGAUAUACCAGAAGGGUUGGUUGGUG (Eterna round: R96, puzzle: Same State NG 3)
86.2

Also, CCGGAUAAUGGAGGAUAUGGAGCCUUAUUGGCUCCAGAAGGCUAACAUGAGGAUCACCCAUGUAGUCCGGCGGUCAAUAGACCG [Eli NG1ss - 67] (Eterna round: R96, puzzle: Same State NG 1) please.
10.9

Repeat for the following sequence: GGAGCCGGCCUAGGAUAUUUCAUAUAUUAACAUGAGGAUCACCCAUGUAGGCCAGAAGGCCUUGGGAAGAAGGAGGUCGGCUCC [Loop Effect - U25,U27,U28] (Eterna round: R96, puzzle: Same State NG 2)
15.7

Another sequence: UUAAUAAUGAUAGGAUAUACAUGAGGAAUUCUCGUAGAAGGAUCAUGACAUGAGGAUCACCCAUGUAACGCUCCGUAGAGCGUA [Mat - Same State NG 1 - JL mod - D36] (Eterna round: R96, puzzle: Same State NG 1)
413

Try this sequence next: GGCCUCUGUCAAGGAUAUGCUACCGUUUCGGUAGCAGAAGGUGAUCACAUGAGGAUCACCCAUGUUUAGGCCAACAGGCCCGCC (Eterna round: R96, puzzle: Same State NG 1)
1420

Answer for every listed entry: what is its apparent KD of MS2 coat protein? The entries follow.
1. GAAAUAAUGAAAGGAUAUACAUGAGGAAUUCUCGUAGAAGGUUCAUGACAUGAGGAUCACCCAUGUAUCGCUCGAAAGAGCGAG [Mat - Same State NG 1 - JL mod - D31] (Eterna round: R96, puzzle: Same State NG 1)
2. GUUACAUGAGGAUCACCCAUGUAAGUGUGGGAGAAAGUGACUUAGGAUAUCUAAUAUUUAAAUUAAGAGAAGGAAGAUUGUUGU [JMF's solution 4] (Eterna round: R96, puzzle: Same State NG 3)

510
86.8

====

test system: K4 kissing-loop RNA reporter; experiment: apparent KD of K4 kissing-loop reporter; higher = weaker reporter binding; details: Eterna round: R107; input ligand: tryptophan 2.4 mM;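 also: bound reporter read as fluorescence of individual clusters on recovered sequencing chips by microscopy, with normalized cluster intensities fitted with a binding model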
Attribute measured: apparent KD of K4 kissing-loop reporter (nM)
Give bare numbers, in nM.

Examples from the recorded data:
State the recorded apparent KD of K4 kissing-loop reporter for this entry: AUUUUAUUAACUGAUACCAGACUUAAUGAUUUGUAAAUUACUAGUGAUGUUAGUGAUUCUGUCCCUUGGCAGCAGUAUUUAUUUA [JR_ExcTheophyB_Sub013]
69.4

Moving on to UUUUAUAACCGAAGGAGCGCGUGGGCGCAGUGAUGUUGCGCCCGACAUCACUUCAACUUAACGCAGGUAGGUCGCGGUUUUAAUA [Arginine B (Excl) V2]
153

Check UGUACUCUGAAAGGAUAUGUGAGCCCUUUUUGUUAGUGAUGUUGACACGGAAACACCAUCAGACUUACAGAAGGUUCGUUGGGUA [theeternabot_sameState_KL_FMN_B_17] too.
252

Please supply apparent KD of K4 kissing-loop reporter for each of the following items, keeping them in order.
1. UAAGAAUAAGUAGCAGUGAUGUUGCUACUGCGAGGACCGGUACGGCCGCCACUCGAGUCCUCGAAGCGUCACUGAACGAGGAAUA [whbob_SS_Tryp_A_m13]
2. GGAUAUGUAACAGAUACCAGCCGACGACAGUCACUGUGUCAUGUAGUGAUGUUACAAUCUGGCCCUUGGCAGCUGUCUCUGGUUU [theeternabot_exclusion_KL_Theo_B_27]
3. GGAUGGUAGGCGGCCGCCACUAAAAGUGAACACAUACAAGCCAGUGAUGUUGGUAUGAUGGACUAUAGGACCGGGCCUAGAUAGA [Exclusion - Tryptophan B (Freestyle 6)]
4. AGUAGUCGACAAGGAUAUACUAGGAGAGACGUUUGCACAUAACCUGCCCUACGAAGUGAUGUUUCGGUAGAAGGUGUUGGGCUGU [theeternabot_exclusion_KL_FMN_B_34]
5. AAAAUAAACCAGUGAUGUUGGUGUGUAGAUACCAGCGACGAAAGUCGCCCUUGGCAGCUGUGGACGUACAAAAUAAGUACGUCCU [MatMod 23 - Jieux - Same State - Theophylline A]

1. 187
2. 250
3. 466
4. 71.5
5. 280

Quick request: apparent KD of K4 kissing-loop reporter for each listed item, please.
1. GCUAUGGUAGGAAGGAGCGCUACUUUGUUUUUACGAGUGAUGUUCGGUAGCAGAGUGUUAAAGCAGGUAGGUCGCCUACUAUAGC [Arginine B K4 19]
2. CGGAACGCAUCGGCCGCCACUUUUAUCUGCAGUGAUGUUGCAGUAUCCGAGCAAGGCUGUUGUGAAAGGACCGGGAUGGUCCGUU [Tibeberi]
3. GGGAGUUAUUACGGCAGGGUCGAUACGGAUACCAGUAGGCGGCUCUACCCUUGGCAGCCGUAACAUGGUAGUGAUGUUAUCAGUC [theeternabot_exclusion_KL_Theo_A_24]
4. GUACCUUGGAAACAAGGACCGCUAACCGAAGGAGCGCGUGAAAACGCAGGUAGGUCGCGGUAGCGGAGUGAUGUUCCGCGAGAGG [Excluson Arginine A GF 14]
5. UUCUAAAUGUCUGAUACCAGAGAAAAUAUAUGUAGUGAUGUUAUAUACAAAUUUAAUAAGCUCCCUUGGCAGCAGUAUGAAUUUU [AstrosExc-TheB#13]

1. 280
2. 143
3. 405
4. 165
5. 595
